- System tested: Type-2 angiotensin II receptor (Sus scrofa)
- Test description: Displacement of [125I]-Ang II from pig uterus membrane angiotensin II type 2 (AT2) receptor
Test readout: IC50 (nM)
Kindly provide the numeric value in nM only, without the unit symbol.

Entry "CCCCOC(=O)NS(=O)(=O)c1ccc(Cc2cccc(OC)c2)cc1-c1ccc(Cn2c(CC)nc3c(C)cc(C)nc32)cc1" , IC50 reported as 101

Hey, just so you know, these numbers are from ChEMBL document CHEMBL1138699.
